- METHOD SUMMARY: absolute recovery over vacuum-assisted evaporative concentration; higher = better recovery
- CONDITION INFO: wastewater influent; enrichment method: VEC
Each entry below carries its recorded absolute recovery.
Number only, in %; omit the unit.

Worked cases, answers included:
| COMPOUND | absolute recovery / % |
| --- | --- |
| O=C(CCC[NH+]1CCC(O)(c2ccc(Cl)cc2)CC1)c1ccc(F)cc1 [Haloperidol] | 118 |
| CC(C)Oc1cccc(NC(=O)c2ccccc2C(F)(F)F)c1 [Flutolanil] | 103 |
| Cc1cncc(C(=O)[O-])c1 [5-Methylpyridine-3-carboxylic-acid] | 141 |
| CCOCN(C(=O)CCl)c1c(C)cccc1CC [Acetochlor B] | 76.8 |
| Clc1ccccc1C(c1ccccc1)(c1ccccc1)n1ccnc1 [Clotrimazol] | 110 |
| CC#Cc1cc(C)nc(Nc2ccccc2)n1 [Mepanipyrim] | 62.1 |
| CN(C)C(=O)NC1CCCCCCC1 [Cycluron] | 106 |
| Nc1cn[nH+]c([O-])c1Cl [Chloridazon-desphenyl] | 98.3 |

Q: Give recorded absolute recovery. Cc1ccc2[nH]nnc2c1 [5-Methyl-Benzotriazol]
A: 100

Q: Give recorded absolute recovery. Nc1c(I)c(N)c(I)c(C(=O)[O-])c1I [3-5-Diamino-2-4-6-triiodobenzoic-acid]
A: 97.2

Q: Give recorded absolute recovery. CNC(=O)ON=C(C)SC [Methomyl]
A: 110

Q: Give recorded absolute recovery. CC(C)[NH2+]CC(O)COc1ccc(CC(=O)[O-])cc1 (stereo not given) [Atenolol-acid (=Metoprolol acid)]
A: 104

Q: Give recorded absolute recovery. Cc1cccc(C)c1N(Cn1cccn1)C(=O)C(=O)[O-] [Metazachlor-OXA]
A: 103

Q: Give recorded absolute recovery. C[NH+]=C([N-][N+](=O)[O-])NCc1cnc(Cl)s1 [Clothianidin]
A: 106

Q: Give recorded absolute recovery. CC(C)N1C(=O)c2ccccc2[N-]S1(=O)=O [Bentazon]
A: 101

Q: Give recorded absolute recovery. COC=C(C(=O)OC)c1ccccc1Oc1cc(Oc2ccccc2C#N)ncn1 [Azoxystrobin]
A: 99.4

Q: Give recorded absolute recovery. CCN(CC)C(=O)C(C)Oc1cccc2ccccc12 (stereo not given) [Napropamid]
A: 90.9

Q: Give recorded absolute recovery. CCCC(NC(C)C(=O)N1C(C(=O)[O-])CC2CCCCC21)C(=O)OCC (stereo not given) [Perindopril]
A: 96.1

Q: Give recorded absolute recovery. Nc1c(Cl)c(F)nc(OCC(=O)[O-])c1Cl [Fluroxypyr (free acid)]
A: 95.6

Q: Give recorded absolute recovery. C[NH+](C)CCOC(C)(c1ccccc1)c1ccccn1 (stereo not given) [Doxylamine]
A: 109
